- system: UniProt O35433
- Sequence (O35433 whole entry): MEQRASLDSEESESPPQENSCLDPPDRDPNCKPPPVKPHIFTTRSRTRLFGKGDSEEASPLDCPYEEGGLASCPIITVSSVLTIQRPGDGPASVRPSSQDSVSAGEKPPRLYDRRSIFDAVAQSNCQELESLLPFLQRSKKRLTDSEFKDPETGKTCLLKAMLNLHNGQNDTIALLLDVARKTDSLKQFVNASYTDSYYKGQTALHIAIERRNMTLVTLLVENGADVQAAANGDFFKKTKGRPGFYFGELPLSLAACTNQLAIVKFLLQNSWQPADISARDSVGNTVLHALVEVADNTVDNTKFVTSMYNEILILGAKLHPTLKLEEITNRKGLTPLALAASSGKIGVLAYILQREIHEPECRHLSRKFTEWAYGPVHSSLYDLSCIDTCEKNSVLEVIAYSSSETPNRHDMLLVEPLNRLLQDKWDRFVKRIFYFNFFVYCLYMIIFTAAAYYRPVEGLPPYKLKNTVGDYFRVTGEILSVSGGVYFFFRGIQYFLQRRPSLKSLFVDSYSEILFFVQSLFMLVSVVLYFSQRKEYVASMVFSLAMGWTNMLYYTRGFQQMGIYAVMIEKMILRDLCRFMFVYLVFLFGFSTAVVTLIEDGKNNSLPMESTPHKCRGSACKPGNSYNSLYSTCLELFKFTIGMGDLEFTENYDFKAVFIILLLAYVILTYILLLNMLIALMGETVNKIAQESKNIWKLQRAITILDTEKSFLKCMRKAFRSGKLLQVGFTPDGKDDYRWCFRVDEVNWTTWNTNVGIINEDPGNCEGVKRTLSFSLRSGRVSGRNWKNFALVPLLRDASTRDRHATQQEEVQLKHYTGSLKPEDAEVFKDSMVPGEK
- protocol details: Antagonist activity at rat TRPV1 expressed in CHO cells assessed as inhibition of capsaicin-induced calcium influx
- Assay type: functional, cell-based
pIC50: −log10 of the molar value.
metric name: pIC50

Example entries and their recorded answers appear below.
{"compound": "COC[C@H](C)Nc1nc(Oc2cccc3[nH]c(=O)c(N)nc23)cc(-c2ccc(C(F)(F)F)cc2N)n1", "metric name": "pIC50", "result number": 8.42}
{"compound": "CC(=O)Nc1nc2c(Oc3cc(-c4ccc(C(F)(F)F)cc4NC(=O)NC(C)(C)C)ncn3)cccc2s1", "metric name": "pIC50", "result number": 8.62}
{"compound": "CC(C)(C)NC(=O)Nc1cc(C(F)(F)F)ccc1-c1cc(Oc2cccc3[nH]c(=O)c(N)nc23)ncn1", "metric name": "pIC50", "result number": 8.39}
{"compound": "CC(O)CCNc1nc(Oc2cccc3[nH]c(=O)c(N)nc23)cc(-c2ccc(C(F)(F)F)cc2)n1 (centres undefined)", "metric name": "pIC50", "result number": 7.79}
{"compound": "Nc1nc2c(Oc3cc(-c4ccc(C(F)(F)F)cc4NC(=O)c4ccncc4)ncn3)cccc2[nH]c1=O", "metric name": "pIC50", "result number": 8.48}

P = CC(=O)Nc1nc2c(Oc3cc(-c4ccc(C(F)(F)F)cc4N)ncn3)cccc2s1
Q = Nc1nc2c(Oc3cc(-c4ccc(C(F)(F)F)cc4NC(=O)c4ccccn4)ncn3)cccc2[nH]c1=O
R = Nc1nc(Oc2cccc3[nH]c(=O)c(N)nc23)cc(-c2ccc(C(F)(F)F)cc2)n1
S = Nc1cc(C(F)(F)F)ccc1-c1cc(Oc2cccc3[nH]c(=O)c(N)nc23)ncn1
Rank by pIC50 (largest to smallest). Lab note: final answer is the ordered label list.
Q, S, R, P

src = ChEMBL document CHEMBL1149911
